assay_text: Cytotoxicity against human SW480 cells overexpressing TMPRSS4 assessed as cell viability at 0.1 uM after 2 days by CCK-8 assay
Assay type: cell-based
condition: read-out: Activity

- chemical_structure: "O=C(Nc1cc(C(F)(F)F)c(Br)c(C(F)(F)F)c1)c1cc(Cl)ccc1O"
  viability at 48 h, 0.1 µM: "89%"
- chemical_structure: "O=C(Nc1cc(Br)cc(C(F)(F)F)c1)c1cc(Cl)ccc1O"
  viability at 48 h, 0.1 µM: "93%"
- chemical_structure: "O=C(Nc1cc(C(F)(F)F)cc(C(F)(F)F)c1)c1cc(Cl)ccc1O"
  viability at 48 h, 0.1 µM: "90%"
- chemical_structure: "O=C(Nc1cc(C(F)(F)F)cc(C(F)(F)F)c1)c1cc([N+](=O)[O-])ccc1O"
  viability at 48 h, 0.1 µM: "96%"
- chemical_structure: "Cc1c(C(F)(F)F)cc(NC(=O)c2cc(Cl)ccc2O)cc1C(F)(F)F"
  viability at 48 h, 0.1 µM: "90%"
